Target: T1, Rb^P S474R (human, UniProt P06400 380-788, S474R)
T1 construct: also called variant 13
T1 sequence (looked up): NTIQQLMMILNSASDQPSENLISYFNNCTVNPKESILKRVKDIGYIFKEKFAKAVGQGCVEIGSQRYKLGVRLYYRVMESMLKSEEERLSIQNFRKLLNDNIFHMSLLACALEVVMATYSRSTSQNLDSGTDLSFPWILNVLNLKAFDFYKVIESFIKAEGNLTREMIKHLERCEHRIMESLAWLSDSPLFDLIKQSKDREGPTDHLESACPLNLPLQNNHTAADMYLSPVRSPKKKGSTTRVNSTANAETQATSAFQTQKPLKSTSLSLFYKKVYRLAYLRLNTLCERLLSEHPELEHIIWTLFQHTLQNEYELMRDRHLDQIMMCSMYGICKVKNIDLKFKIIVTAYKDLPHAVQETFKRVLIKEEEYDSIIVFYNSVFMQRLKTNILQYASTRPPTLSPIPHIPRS
Assay: fluorescence polarisation; 37 °C, after the 25 °C reading ramped over 7 min to 37 °C and 2 min incubation; unlabeled Rb^P against 1.5 nM TMR-E2F1^TD or 7.5 nM TMR-E7^LxCxE; 25 mM Tris pH 8.0, 200 mM NaCl, 1 mM DTT, 0.1% Tween-20; apparent Kd
Details: both partners purified
pKd: −log10 of the molar value. No end group written: not given here. TMR = tetramethyl rhodamine dye
Listed next: entries and their corresponding pKd.
assay_metric: pKd

INSERT INTO measurements (binder, result) VALUES
  ('DLYCYEQLN (also: TMR label, position not given here, source: synthetic peptide, bought: GenScript) [TMR-E7^LxCxE, LxCxE peptide of the E7 oncoprotein from HPV]', 7.82),
  ('{TMR}-GEGIRDLFDCDFGDLTPLD (also called E2F^TD; source: synthetic peptide, bought: GenScript) [TMR-E2F1^TD, peptide of the E2F1 transactivation domain]', 6.24);

Data provenance: paper PMC11931385
